Data origin: PubChem BioAssay AID1963431

Tested on: Rh18 complex spheroid viability, percent test/control
assay_method_text: Anticancer human tumor Rh18 cell line growth inhibition [Asc]; active means viability on the fitted dose curve at most 10% of control; inactive means the rest;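 further: spheroids exposed to compound for 7 days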
assay_conditions: second compound 0.3 µM; first compound 10 µM
Classes to choose from: True (active), False (inactive)

Assay outcome for O=C(c1cc(Cc2n[nH]c(=O)c3ccccc23)ccc1F)N1CCN(C(=O)C2CC2)CC1 + CCN1C(C(=O)NC23CCC(C(=O)O)(CC2)CC3)C(c2cccc(Cl)c2F)C2(C(=O)Nc3cc(Cl)ccc32)C12CCCCC2 : what was it? False

Assay outcome for C#Cc1c(F)ccc2cc(O)cc(-c3ncc4c(N5CC6CCC(C5)N6)nc(OCC56CCCN5CC(F)C6)nc4c3F)c12 (centres undefined) + CCN1C(C(=O)NC23CCC(C(=O)O)(CC2)CC3)C(c2cccc(Cl)c2F)C2(C(=O)Nc3cc(Cl)ccc32)C12CCCCC2 : what was it? False

Assay outcome for C=C(F)C(=O)N1CCN(c2nc(OCC3CCCN3C)nc3c2CCN(c2cccc4cccc(Cl)c24)C3)CC1CC#N (centres undefined) + CCN1C(C(=O)NC23CCC(C(=O)O)(CC2)CC3)C(c2cccc(Cl)c2F)C2(C(=O)Nc3cc(Cl)ccc32)C12CCCCC2 : what was it? True

Assay outcome for C=CC(=O)N1CCN(c2nc(=O)n(-c3c(C)ccnc3C(C)C)c3nc(-c4c(O)cccc4F)c(F)cc23)C(C)C1 (centres undefined) + CCN1C(C(=O)NC23CCC(C(=O)O)(CC2)CC3)C(c2cccc(Cl)c2F)C2(C(=O)Nc3cc(Cl)ccc32)C12CCCCC2 : what was it? False
